target: T1, recombinant MS4A4A soluble polypeptide JS5; test: ELISA, 0.33 ug/ml antibody
T1 construct: also called JS5.His
Form field: ELISA OD (one value per entry).
Answer using only a numeral; do not append any unit.

Asked: State the recorded ELISA OD for this entry: anti-MS4A4A antibody 4A-354 (antibody, V domains shown, full human IgG) VH: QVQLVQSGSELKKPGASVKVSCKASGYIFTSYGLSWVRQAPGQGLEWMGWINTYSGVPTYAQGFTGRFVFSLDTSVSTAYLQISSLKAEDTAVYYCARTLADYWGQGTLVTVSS VL: DVVMTQSPLSLPVTLGQPASISCKSSRSLLYSAGKTYLSWFQQRPGQSPRRLIYLVSKLDSGVPDRFSGSGSGTDFTLKISRVEAEDVGVYYCWQGIDFHQTFGGGTKVEIK
Given back: 0.874

Asked: Look at this binder and give its reported ELISA OD. anti-MS4A4A antibody 4A-351 (antibody, V domains shown, full human IgG) VH: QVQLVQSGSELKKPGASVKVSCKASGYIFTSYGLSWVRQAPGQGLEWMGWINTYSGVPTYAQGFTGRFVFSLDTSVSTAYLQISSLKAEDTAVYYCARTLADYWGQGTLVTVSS VL: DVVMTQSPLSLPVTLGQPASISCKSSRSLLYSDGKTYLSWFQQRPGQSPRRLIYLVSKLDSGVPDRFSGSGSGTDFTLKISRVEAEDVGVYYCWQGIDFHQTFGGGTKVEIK
Given back: 0.898

Asked: Please look up its ELISA OD: anti-MS4A4A antibody 4A-355 (antibody, V domains shown, full human IgG) VH: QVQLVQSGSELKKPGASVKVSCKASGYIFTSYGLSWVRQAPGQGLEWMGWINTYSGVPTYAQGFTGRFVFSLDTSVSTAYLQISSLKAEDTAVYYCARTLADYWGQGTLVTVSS VL: DVVMTQSPLSLPVTLGQPASISCKSSRSLLYSSGKTYLSWFQQRPGQSPRRLIYLVSKLDSGVPDRFSGSGSGTDFTLKISRVEAEDVGVYYCWQGIDFHQTFGGGTKVEIK
Given back: 0.878

Asked: I have this binder here, anti-MS4A4A antibody 4A-353 (antibody, V domains shown, full human IgG) VH: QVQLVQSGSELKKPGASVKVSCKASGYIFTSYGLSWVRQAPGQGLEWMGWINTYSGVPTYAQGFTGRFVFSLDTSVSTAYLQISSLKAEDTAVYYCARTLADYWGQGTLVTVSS VL: DVVMTQSPLSLPVTLGQPASISCKSSRSLLYSEGKTYLSWFQQRPGQSPRRLIYLVSKLDSGVPDRFSGSGSGTDFTLKISRVEAEDVGVYYCWQGIDFHQTFGGGTKVEIK , and I need its recorded ELISA OD.
Given back: 0.85

// switching to the query binder
Asked: Entry under review: anti-MS4A4A antibody 4A-378 (antibody, V domains shown) VH: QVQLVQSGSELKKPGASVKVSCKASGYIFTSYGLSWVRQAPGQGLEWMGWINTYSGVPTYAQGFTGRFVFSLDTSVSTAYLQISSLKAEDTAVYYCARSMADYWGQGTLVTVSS VL: DVVMTQSPLSLPVTLGQPASISCKSSRSLLYSEGKTYLSWFQQRPGQSPRRLIYLVSKLDSGVPDRFSGSGSGTDFTLKISRVEAEDVGVYYCWQGIDFHQTFGGGTKVEIK . Reported ELISA OD?
Given back: 0.848
